# protocolSummary: AlphaScreen counterscreen against bio-H3K4me2 peptide in the absence of enzyme (artifact signal);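 also: counterscreen run without enzyme against bio-H3K4me2 peptide to remove false positive hits from the JARID1 demethylase AlphaScreen screen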
# testContext: counterscreen, bio-H3K4me2 peptide, no enzyme
endpoint: Artifact signal: effect of the compound when it is incubated with bio-H3K4me2 peptide
Please give only the number in your answer, with no unit.

Quick check: Artifact signal: effect of the compound when it is incubated with bio-H3K4me2 peptide of COc1cccc2c1C(=O)c1c(O)c3c(c(O)c1C2=O)C[C@@](O)(C(=O)CO)C[C@@H]3O[C@H]1C[C@H](N)[C@H](O)[C@H](C)O1.Cl (stereo in doubt) [YU039629, DOXORUBICIN HYDROCHLORIDE, reference compound] ?
3.92

Next record, please: O=c1c(O)c(-c2ccc(O)c(O)c2)oc2cc(O)cc(O)c12 [YU034090, QUERCETIN, reference compound]
58.14

// next record Cc1cc2c(C(C)C)c(O)c(O)c(C=O)c2c(O)c1-c1c(C)cc2c(C(C)C)c(O)c(O)c(C=O)c2c1O [YU034280, GOSSYPOL-ACETIC ACID COMPLEX, reference compound]
64.46

And for Cc1ccc(NC(=O)CC2SC3=NCCCN3C2=O)c(C)c1 (stereo not drawn) ?
1.46

And then "Cc1cc(C(=O)Nc2cccc(Cn3cccn3)c2)cs1" , what is it?
−8.78

Also check Oc1c(Cl)cc(Cl)cc1Sc1cc(Cl)cc(Cl)c1O [YU033712, BITHIONOL, reference compound]
−3.70

What do you have for Cc1ccc(NC(c2cccnc2)c2ccc3cccnc3c2O)cc1C (stereo not drawn) ?
37.31

What would you report for O=C(O[C@@H]1Cc2c(O)cc(O)cc2O[C@@H]1c1cc(O)c(O)c(O)c1)c1cc(O)c(O)c(O)c1 [YU153090, EPIGALLOCATECHIN-3- MONOGALLATE, reference compound] ?
90.25

Similarly, O=c1cc(-c2ccccc2)oc2cc(O)c(O)c(O)c12 [YU155285, BAICALEIN, reference compound] ?
1.01

====

# measurementTarget: JARID1B (Homo sapiens)
# Construct: The FLAG tagged full length JARID1B enzyme was expressed in Sf21 insect cells using FLAG-JARID1B baculoviruses; FLAG (N); made in house; host or cells: Sf21 insect cells (baculovirus)
# Sequence (Q9UGL1 whole entry): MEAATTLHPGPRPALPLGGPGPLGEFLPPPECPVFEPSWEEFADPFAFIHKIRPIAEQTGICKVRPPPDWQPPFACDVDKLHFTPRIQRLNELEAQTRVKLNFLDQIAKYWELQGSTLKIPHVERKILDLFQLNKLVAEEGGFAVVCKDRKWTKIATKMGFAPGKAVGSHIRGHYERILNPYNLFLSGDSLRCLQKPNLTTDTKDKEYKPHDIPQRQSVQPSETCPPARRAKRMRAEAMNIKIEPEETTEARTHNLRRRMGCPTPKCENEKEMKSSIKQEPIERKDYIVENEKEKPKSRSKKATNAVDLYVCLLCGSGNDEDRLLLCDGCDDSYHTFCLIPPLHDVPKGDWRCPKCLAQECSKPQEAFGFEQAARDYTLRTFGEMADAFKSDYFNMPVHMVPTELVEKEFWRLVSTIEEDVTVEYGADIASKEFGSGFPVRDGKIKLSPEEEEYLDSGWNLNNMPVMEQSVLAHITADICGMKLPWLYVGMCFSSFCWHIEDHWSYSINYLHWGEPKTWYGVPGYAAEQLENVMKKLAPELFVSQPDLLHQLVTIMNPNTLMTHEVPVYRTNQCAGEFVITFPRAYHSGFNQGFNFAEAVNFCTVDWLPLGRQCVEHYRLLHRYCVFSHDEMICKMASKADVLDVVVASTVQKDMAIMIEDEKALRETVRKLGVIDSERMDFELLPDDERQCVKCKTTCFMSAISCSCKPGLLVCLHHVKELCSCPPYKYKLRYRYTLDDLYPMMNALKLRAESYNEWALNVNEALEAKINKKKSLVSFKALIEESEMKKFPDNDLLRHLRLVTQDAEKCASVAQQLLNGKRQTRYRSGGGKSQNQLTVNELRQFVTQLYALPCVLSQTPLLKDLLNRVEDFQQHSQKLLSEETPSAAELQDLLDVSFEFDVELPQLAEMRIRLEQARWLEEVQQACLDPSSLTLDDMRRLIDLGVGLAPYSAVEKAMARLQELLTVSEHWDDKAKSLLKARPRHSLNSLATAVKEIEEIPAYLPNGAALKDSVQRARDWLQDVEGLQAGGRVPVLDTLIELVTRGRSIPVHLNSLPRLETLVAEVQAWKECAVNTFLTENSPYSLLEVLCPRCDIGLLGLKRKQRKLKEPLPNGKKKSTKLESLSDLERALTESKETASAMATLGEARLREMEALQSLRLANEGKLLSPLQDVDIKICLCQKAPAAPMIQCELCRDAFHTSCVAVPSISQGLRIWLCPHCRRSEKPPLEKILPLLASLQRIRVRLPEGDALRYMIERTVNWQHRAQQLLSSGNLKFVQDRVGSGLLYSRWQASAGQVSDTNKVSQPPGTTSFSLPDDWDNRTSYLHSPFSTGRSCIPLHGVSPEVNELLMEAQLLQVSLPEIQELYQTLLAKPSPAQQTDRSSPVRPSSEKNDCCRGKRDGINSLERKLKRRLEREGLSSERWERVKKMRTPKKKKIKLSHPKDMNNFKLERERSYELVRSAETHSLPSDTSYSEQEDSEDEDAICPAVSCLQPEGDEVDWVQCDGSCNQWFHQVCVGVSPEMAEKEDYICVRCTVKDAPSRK
# protocolSummary: FLAG-JARID1B histone demethylase assay with AlphaScreen detection (HTS and dose response);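 also: FLAG-tagged JARID1B at 4 nM acting on a biotinylated H3K4me3 peptide, demethylation read by AlphaScreen luminescence, with hits checked against bio-H3K4me2 without enzyme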;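 also: compound tested at 20 µM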
# Format: biochemical
# testContext: validation of HTS actives; effect of compound in JARID1B AlphaScreen assay
Structures can show the parent of a compound that is named as a salt.
Record Condition met whenever Assay Signal (percent) is at 50% or higher; record Condition not met when lower.

Please tell me: is the compound Nc1nc2nc[nH]c2c(=S)[nH]1 [YU034024, THIOGUANINE, reference compound] at or over 50% in terms of Assay Signal (percent)?
Condition not met

Another compound to check: O=C(O[C@@H]1Cc2c(O)cc(O)cc2O[C@@H]1c1cc(O)c(O)c(O)c1)c1cc(O)c(O)c(O)c1 [YU040338, Epigallocatechin gallate, reference compound]
Condition met

Then this compound: "O=C(Cn1c(=O)oc2ccccc21)Nc1cccc([N+](=O)[O-])c1"
Condition not met

Thanks! And N#CC(=Cc1cc(O)c(O)c(O)c1)C(N)=C(C#N)C#N (single isomer, unassigned) [YU154835, TYRPHOSTIN 51, reference compound] ?
Condition not met

Please do the same for O=C(O[C@@H]1Cc2c(O)cc(O)cc2O[C@@H]1c1ccc(O)c(O)c1)c1cc(O)c(O)c(O)c1 [YU153085, EPICATECHIN MONOGALLATE, reference compound] as well.
Condition met

Would you mind doing O=C1c2c(O)ccc(O)c2C(=O)c2c(NCCNCCO)ccc(NCCNCCO)c21 [YU034420, MITOXANTHRONE HYDROCHLORIDE, reference compound] as well?
Condition met
